Tested on: lambsquarters (Chenopodium album, CHEAL)
experiment_summary: Post-emerge greenhouse herbicide test, phytotoxicity rating
Type: in vivo
experimental_conditions: 500 g al/ha, 14 days after application

compound	CHEAL phytotoxicity rating (0-100)
Nc1ccc(Oc2cc(-n3c(=O)n4n(c3=S)CCCC4)c(F)cc2Cl)cc1	95
Cn1nc(-c2cc(Oc3cccc(F)n3)c(Cl)cc2F)c(Cl)c1C(F)(F)F	100
Cn1nc(-c2cc(Oc3ncccc3C#N)c(Cl)cc2F)c(Cl)c1C(F)(F)F	100
CCN1CC(=O)N(c2cc(Oc3ncccn3)c(Cl)cc2F)C1=O	100
Cn1c(C(F)(F)F)nc(-c2cc(Oc3ncccc3C(F)(F)F)c(Cl)cc2F)c1Cl	90
O=C1C2CCCCN2C(=O)N1c1cc(Oc2ncccc2C(F)(F)F)c(Cl)cc1F (centres unmarked)	75
O=c1cc2n(c(=O)n1-c1cc(Oc3ncccn3)c(Cl)cc1F)CCC2	75
N#Cc1cc([N+](=O)[O-])ccc1Oc1cc(-n2c(=O)n3n(c2=S)CCCC3)c(F)cc1Cl	70
O=c1n(-c2cc(Oc3ccc([N+](=O)[O-])cc3)c(Cl)cc2F)c(=S)n2n1CCCC2	100
O=c1n(CCCF)nnn1-c1cc(Oc2ncccn2)c(Cl)cc1F	100
Cn1nc(-c2cc(Oc3ncccc3C(F)(F)F)c(Cl)cc2F)c(Cl)c1C(F)(F)F	100
Cn1c(C(F)(F)F)nc(-c2cc(Oc3ncccn3)c(Cl)cc2F)c1Cl	100
Cn1nc(-c2cc(Oc3ncccc3[N+](=O)[O-])c(Cl)cc2F)c(Cl)c1C(F)(F)F	100
O=c1n(CCCF)nnn1-c1cc(Oc2ncccc2[N+](=O)[O-])c(Cl)cc1Cl	80
O=c1n(CCCF)nnn1-c1cc(Oc2ncc(Br)cn2)c(Cl)cc1F	100
O=c1n(CCCF)nnn1-c1cc(Oc2ncccc2C(F)(F)F)c(Cl)cc1Cl	80
Cn1nc(-c2cc(Oc3ccc(C#N)cn3)c(Cl)cc2F)c(Cl)c1C(F)(F)F	100
O=c1n(CCCF)nnn1-c1cc(Oc2ncccc2C(F)(F)F)c(Cl)cc1F	100
N#Cc1ccccc1Oc1cc(-n2c(=O)n3n(c2=S)CCCC3)c(F)cc1Cl	100
CCN1CC(=O)N(c2cc(Oc3ncccc3C(F)(F)F)c(Cl)cc2F)C1=O	85
CS(=O)(=O)Nc1ccc(Oc2cc(-n3c(=O)cc4n(c3=O)CCC4)c(F)cc2Cl)cc1	0
O=c1sc(=Nc2cc(Oc3ncccc3C(F)(F)F)c(Cl)cc2F)n2n1CCCC2	100
CCOC(=O)C(C)Oc1ccc(Oc2cc(-n3c(=O)n4n(c3=S)CCCC4)c(F)cc2Cl)cc1 (centres unmarked)	100
Cc1nn(-c2cc(Oc3ncccn3)c(Cl)cc2F)c(=O)n1C(F)F	100
O=c1n(-c2cc(Oc3ccccc3[N+](=O)[O-])c(Cl)cc2F)c(=S)n2n1CCCC2	99
O=c1n(-c2cc(Oc3ccccc3)c(Cl)cc2F)c(=S)n2n1CCCC2	100
O=C1C2=CCCCN2C(=O)N1c1cc(Oc2ncccc2C(F)(F)F)c(Cl)cc1F	90
O=c1n(-c2cc(Oc3ccc([N+](=O)[O-])cc3C(F)(F)F)c(Cl)cc2F)c(=S)n2n1CCCC2	90
Cn1nc(-c2cc(Oc3nc(F)c(F)cc3F)c(Cl)cc2F)c(Cl)c1C(F)(F)F	100
COc1nc(OC)nc(Oc2cc(-c3nn(C)c(C(F)(F)F)c3Cl)c(F)cc2Cl)n1	95
O=c1sc(=Nc2cc(Oc3ncccn3)c(Cl)cc2F)n2n1CCCC2	100
N#Cc1cccnc1Oc1cc(-n2nnn(CCCF)c2=O)c(Cl)cc1Cl	80
COc1cc(OC)nc(Oc2cc(-n3nnn(CCCF)c3=O)c(F)cc2Cl)n1	90
CN1CC(=O)N(c2cc(Oc3ncccn3)c(Cl)cc2F)C1=O	85
Cc1nsc(Oc2cc(-n3nnn(CCCF)c3=O)c(F)cc2Cl)c1[N+](=O)[O-]	0
